- system: T1, human APJ receptor (hAPJ) (human, UniProt P35414 1-380)
- T1 sequence (looked up): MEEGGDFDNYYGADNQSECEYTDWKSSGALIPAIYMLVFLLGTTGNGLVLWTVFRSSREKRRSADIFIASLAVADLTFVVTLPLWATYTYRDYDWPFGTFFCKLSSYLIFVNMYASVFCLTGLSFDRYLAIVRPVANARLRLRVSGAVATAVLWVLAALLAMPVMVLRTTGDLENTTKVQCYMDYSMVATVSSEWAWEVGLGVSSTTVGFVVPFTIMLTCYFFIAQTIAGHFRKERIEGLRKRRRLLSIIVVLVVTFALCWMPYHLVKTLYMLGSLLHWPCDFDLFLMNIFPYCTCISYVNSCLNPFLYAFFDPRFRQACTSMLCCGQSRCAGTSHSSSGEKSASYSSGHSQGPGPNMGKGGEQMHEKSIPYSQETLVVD
- methodSummary: cell-based or functional assay
Bridges are numbered along the chain shown (N, C = ends). [ ]: non-standard residue; d: D form. pGlu = O=C1CC[C@@H](C(=O)O)N1; Nle = CCCC[C@H](N)C(=O)O
observable: hAPJ Ca2+ Flux EC50 (nM)

binder	observedResult
H-RRPRLCHKGP[Nle]CF-OH (disulfide 6-12; SMILES CCCC[C@@H]1NC(=O)[C@@H]2CCCN2C(=O)CNC(=O)[C@H](CCCCN)NC(=O)[C@H](Cc2c[nH]cn2)NC(=O)[C@@H](NC(=O)[C@H](CC(C)C)NC(=O)[C@H](CCCNC(=N)N)NC(=O)[C@@H]2CCCN2C(=O)[C@H](CCCNC(=N)N)NC(=O)[C@@H](N)CCCNC(=N)N)CSSC[C@@H](C(=O)N[C@@H](Cc2ccccc2)C(=O)O)NC1=O) [Example 17: H-R-R-P-R-L-C-H-K-G-P-Nle-C-F-OH]	3.29
cyclo(QRPRLCFKGP[Nle]CFGG) (disulfide 6-12) [Example 7: Q-R-P-R-L-C-F-K-G-P-Nle-C-F-G-G]	90.8
[pGlu]RPFLCHKGP[Nle]CF-OH (disulfide 6-12; SMILES CCCC[C@@H]1NC(=O)[C@@H]2CCCN2C(=O)CNC(=O)[C@H](CCCCN)NC(=O)[C@H](Cc2c[nH]cn2)NC(=O)[C@@H](NC(=O)[C@H](CC(C)C)NC(=O)[C@H](Cc2ccccc2)NC(=O)[C@@H]2CCCN2C(=O)[C@H](CCCNC(=N)N)NC(=O)[C@@H]2CCC(=O)N2)CSSC[C@@H](C(=O)N[C@@H](Cc2ccccc2)C(=O)O)NC1=O) [Example 36: pE-R-P-F-L-C-H-K-G-P-Nle-C-F-OH]	7.36
